# cond: PAMPA
Starred links: 1 amine or outer side, 2 acyl side, 3 side chain; linkers in the order of their positions; H or OH if unused. Positions of bridges follow the written chain, without caps; N, C: chain ends. Non-standard residues stand in square brackets, D forms with d. Residues, ends and D or L forms follow the SMILES beside them. X1 = O=C([C@]1(CC=[*:3])CCCN1[*:1])[*:2]; S5 = C=CCCC[C@](C)(N)C(=O)O
I'd appreciate it if you could supply % Retention values for the items below.
Give bare numbers, in %.

CNC(=O)[C@H](CC(N)=O)NC(=O)[C@H](CC(C)C)NC(=O)[C@H](CC(C)C)NC(=O)[C@H](Cc1c[nH]cn1)NC(=O)[C@]1(C)CCCC=CC[C@]2(CCCN2C(C)=O)C(=O)N[C@@H](C)C(=O)N[C@@H](CC(C)C)C(=O)N1 (single isomer, unassigned)
104

Consider the additional compound presented here.
Qu. For the compound shown here, CC[C@H](C)[C@@H]1NC(=O)[C@]2(CC=CCCC[C@@](C)(C(=O)N[C@@H](CCCNC(=N)N)C(=O)N[C@@H](CC(C)C)C(=O)N[C@@H](CC(C)C)C(=O)N[C@@H](CCC(N)=O)C(=O)N[C@@H](Cc3ccc(O)cc3)C(=O)NC)NC(=O)[C@H](CC(C)C)NC1=O)CCCN2C(C)=O [PLL4-1] (Ac-[X1]IL[S5]RLLQY-NHMe; staple 1-4) , give the reported % Retention.
Ans. 75

----------
# assay.name: CHI Log D measurement (chromatographic hydrophobicity index)
# cond: pH 7.4
Positions of bridges follow the written chain, without caps; N, C: chain ends. Non-standard residues stand in square brackets, D forms with d. Residues, ends and D or L forms follow the SMILES beside them. αAllylPro = C=CC[C@@]1(C(=O)O)CCCN1; S5 = C=CCCC[C@](C)(N)C(=O)O
I'd appreciate it if you could supply chromatographic logD values for the items below.
Numbers only.

Would you be so kind as to report chromatographic logD for each listed record?
1. CNC(=O)[C@H](Cc1ccc(O)cc1)NC(=O)[C@@H](NC(=O)[C@H](CC(C)C)NC(=O)[C@H](CC(C)C)NC(=O)[C@H](CC(N)=O)NC(=O)[C@]1(C)CCCC=CCCC[C@](C)(NC(C)=O)C(=O)N[C@@H](C)C(=O)N[C@@H](CCCCN)C(=O)N[C@@H](CC(C)C)C(=O)N1)[C@@H](C)O [PLL4-5 variant 4] (Ac-[S5]AKL[S5]NLLTY-NHMe; staple 1-5)
2. C=CCCC[C@](C)(NC(=O)[C@H](CC(C)C)NC(=O)[C@H](CC(C)C)NC(=O)[C@]1(CC=C)CCCN1C(C)=O)C(=O)N[C@@H](Cc1ccc(O)cc1)C(=O)N[C@@H](CC(C)C)C(=O)N[C@@H](CC(C)C)C(=O)N[C@@H](CC(=O)O)C(=O)NC [PLL4-10 variant 5, Ac-PL3-Leu-Leu-S5-Tyr-Leu-Leu-Asp-NHMe] (Ac-[αAllylPro]LL[S5]YLLD-NHMe)
3. CNC(=O)[C@H](CC(=O)O)NC(=O)[C@H](Cc1c[nH]cn1)NC(=O)[C@H](CC(C)C)NC(=O)[C@H](CC(C)C)NC(=O)[C@H](CCCNC(=N)N)NC(=O)[C@]1(C)CCCC=CCCC[C@](C)(NC(C)=O)C(=O)N[C@@H](C)C(=O)N[C@@H](CC(C)C)C(=O)N[C@@H](CC(C)C)C(=O)N1 [PLL7-9 variant 4] (Ac-[S5]ALL[S5]RLLHD-NHMe; staple 1-5)
4. CNC(=O)[C@H](CC(=O)O)NC(=O)[C@H](CC(C)C)NC(=O)[C@H](CC(C)C)NC(=O)[C@H](Cc1ccc(O)cc1)NC(=O)[C@]1(C)CCCC=CCCC[C@](C)(NC(C)=O)C(=O)N[C@@H](C)C(=O)N[C@@H](CC(C)C)C(=O)N[C@@H](CC(C)C)C(=O)N1 [PLL4-10 variant 4] (Ac-[S5]ALL[S5]YLLD-NHMe; staple 1-5)

Ans.
1: 2.2; 2: 2.8; 3: 2.7; 4: 2.9

Parameters: items (list). Returns: chromatographic logD for each item.
1. CNC(=O)[C@H](CC(N)=O)NC(=O)[C@H](CC(C)C)NC(=O)[C@H](CC(C)C)NC(=O)[C@H](Cc1c[nH]cn1)NC(=O)[C@]1(C)CCCC=CCCC[C@](C)(NC(C)=O)C(=O)N[C@@H](C)C(=O)N[C@@H](C)C(=O)N[C@@H](CC(C)C)C(=O)N1 [PLL7-20 variant 4] (Ac-[S5]AAL[S5]HLLN-NHMe; staple 1-5)
2. CCCC[C@@H]1NC(=O)[C@H](CC(C)C)NC(=O)[C@]2(CC=CCCC[C@@](C)(C(=O)N[C@@H](CC(C)C)C(=O)N[C@@H](CC(C)C)C(=O)N[C@@H](Cc3c[nH]cn3)C(=O)N[C@@H](Cc3ccc(O)cc3)C(=O)NC)NC1=O)CCCN2C(C)=O (single isomer, unassigned)
3. CNC(=O)[C@H](CC(=O)O)NC(=O)[C@H](CCC(N)=O)NC(=O)[C@H](CC(C)C)NC(=O)[C@H](CC(C)C)NC(=O)[C@H](Cc1ccc(O)cc1)NC(=O)[C@]1(C)CCCC=CC[C@]2(CCCN2)C(=O)N[C@@H](CC2CC2)C(=O)N[C@@H](CC(C)C)C(=O)N1 (single isomer, unassigned)
4. CC(=O)N1CCC[C@]12CC=CCCC[C@@](C)(C(=O)N[C@@H](Cc1ccc(O)cc1)C(=O)N[C@@H](CC(C)C)C(=O)N[C@@H](CC(C)C)C(=O)N[C@@H](CC(=O)O)C(N)=O)NC(=O)[C@H](CC(C)C)NC(=O)[C@H](CC(C)C)NC2=O (single isomer, unassigned)
5. C=CCCC[C@](C)(NC(=O)[C@H](CC(C)C)NC(=O)[C@H](CCCCN)NC(=O)[C@]1(CC=C)CCCN1C(C)=O)C(=O)N[C@@H](CC(N)=O)C(=O)N[C@@H](CC(C)C)C(=O)N[C@@H](CC(C)C)C(=O)N[C@H](C(=O)N[C@@H](Cc1ccc(O)cc1)C(=O)NC)[C@@H](C)O [PLL4-5 variant 5] (Ac-[αAllylPro]KL[S5]NLLTY-NHMe)
6. CNC(=O)[C@H](CC(=O)O)NC(=O)[C@H](CC(=O)O)NC(=O)[C@H](CC(C)C)NC(=O)[C@H](CC(C)C)NC(=O)[C@H](Cc1ccc(O)cc1)NC(=O)[C@]1(C)CCCC=CC[C@]2(CCCN2C(C)=O)C(=O)N[C@@H]([C@@H](C)O)C(=O)N[C@@H](CC(C)C)C(=O)N1 (single isomer, unassigned)
7. CNC(=O)[C@H](Cc1c[nH]cn1)NC(=O)[C@H](CC(C)C)NC(=O)[C@H](CC(C)C)NC(=O)[C@H](Cc1ccc(O)cc1)NC(=O)[C@]1(C)CCCC=CC[C@]2(CCCN2C(C)=O)C(=O)N[C@@H](CC(C)C)C(=O)N[C@@H](CC(C)C)C(=O)N1 (single isomer, unassigned)
8. CNC(=O)[C@H](CC(=O)O)NC(=O)[C@H](Cc1c[nH]cn1)NC(=O)[C@H](CC(C)C)NC(=O)[C@H](CC(C)C)NC(=O)[C@H](CCCNC(=N)N)NC(=O)[C@]1(C)CCCC=CC[C@]2(CCCN2C(C)=O)C(=O)O[C@@H](CC(C)C)C(=O)N[C@@H](CC(C)C)C(=O)N1 (single isomer, unassigned)

Ans.
1. 2.6
2. 3.3
3. 1.8
4. 2.2
5. 2.3
6. 1
7. 3.2
8. 2.4

----------
Could you please report measured Papp at 5 h for the items listed next?
# assay.name: in vitro
# Set-up: dose or concentration left out as unconfirmed
# cond: PAMPA, pH 7.4, PAMPA Pe
Starred links: 1 amine or outer side, 2 acyl side, 3 side chain; linkers in the order of their positions; H or OH if unused. Positions of bridges follow the written chain, without caps; N, C: chain ends. Non-standard residues stand in square brackets, D forms with d. Residues, ends and D or L forms follow the SMILES beside them. X1 = O=C([C@]1(CC=[*:3])CCCN1[*:1])[*:2]; αAllylPro = C=CC[C@@]1(C(=O)O)CCCN1; Ala(cPr) = N[C@@H](CC1CC1)C(=O)O; S5 = C=CCCC[C@](C)(N)C(=O)O
Answers are plain numbers, in ×10⁻⁶ cm/s.

CC(=O)N1CCC[C@]12CC=CCCC[C@@](C)(C(=O)N[C@@H](Cc1ccc(O)cc1)C(=O)N[C@@H](CC(C)C)C(=O)N[C@@H](CC(C)C)C(=O)N[C@@H](CCC(N)=O)C(=O)N[C@@H](CC(=O)O)C(N)=O)NC(=O)[C@H](CC(C)C)NC(=O)[C@H](CC1CC1)NC2=O (single isomer, unassigned)
0.5
C=CCCC[C@](C)(NC(=O)[C@H](CC(C)C)NC(=O)[C@H](C)NC(=O)[C@]1(CC=C)CCCN1C(C)=O)C(=O)N[C@@H](Cc1c[nH]cn1)C(=O)N[C@@H](CC(C)C)C(=O)N[C@@H](CC(C)C)C(=O)N[C@@H](CC(N)=O)C(=O)NC [PLL7-20 variant 5, Ac-PL3-Ala-Leu-S5-His-Leu-Leu-Asn-NHMe] (Ac-[αAllylPro]AL[S5]HLLN-NHMe)
0.3

Now for a further molecule.
Qu. Give its Papp at 5 h value. Item: CNC(=O)[C@H](CC(=O)O)NC(=O)[C@H](CCC(N)=O)NC(=O)[C@H](CC(C)C)NC(=O)[C@H](CC(C)C)NC(=O)[C@H](Cc1ccc(O)cc1)NC(=O)[C@]1(C)CCCC=CC[C@]2(CCCN2C(C)=O)C(=O)N[C@@H](CC2CC2)C(=O)N[C@@H](CC(C)C)C(=O)N1 [PLL7-7] (Ac-[X1][Ala(cPr)]L[S5]YLLQD-NHMe; staple 1-4)
Ans. 1

Data origin: patent US20230357320A1
